Target: RIPK1 (Homo sapiens, UniProt Q13546)
Construct: recombinant GST-RIPK1 kinase domain (residues 1-327) enzyme produced from baculovirus-transfected Sf21 cells
Sequence (Q13546 1-327): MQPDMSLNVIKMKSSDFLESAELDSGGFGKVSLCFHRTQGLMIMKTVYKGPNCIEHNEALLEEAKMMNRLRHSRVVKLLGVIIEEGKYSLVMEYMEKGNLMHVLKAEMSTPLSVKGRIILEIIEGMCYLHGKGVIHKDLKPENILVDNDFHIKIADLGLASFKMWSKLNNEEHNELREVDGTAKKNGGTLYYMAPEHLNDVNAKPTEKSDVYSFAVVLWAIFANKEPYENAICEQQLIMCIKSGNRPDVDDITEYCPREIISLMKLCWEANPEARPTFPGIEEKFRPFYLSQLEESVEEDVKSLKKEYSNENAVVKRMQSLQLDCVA
Assay: RIPK1-ADP-Glo enzymatic assay
Conditions: ADP-Glo luminescent ADP detection; 25 nM GST-RIPK1 kinase domain (residues 1-327), 300 μM ATP, dephosphorylated-MBP substrate; 30 min pre-incubation, 150 min reaction
The following compounds are listed with their measured pEC50 values.
Lab note — pEC50 values are minus log10 of concentrations in M.

# count of solved cases: 3
>  <compound>
O=C(N1CC(c2ccncn2)C1)N1N=CC[C@H]1c1cc(F)cc(F)c1 [Example 1.51]

>  <pEC50>
5.95

$$$$
>  <compound>
C[C@@H]1[C@@H](Oc2ccc(F)cc2)CN1C(=O)N1N=CC[C@H]1c1cncc(C#N)c1 [Example 2.24]

>  <pEC50>
7.94

$$$$
>  <compound>
CS(=O)(=O)N1CCC2(CC1)CN(C(=O)N1N=CC[C@H]1c1cc(F)cc(F)c1)C2 [Example 1.20]

>  <pEC50>
5.88

$$$$

Alright, here's another compound for you.
### Prompt For the record N#Cc1cncc([C@@H]2CC=NN2C(=O)N2CC(Oc3ccc(F)cc3)C2)c1 [Example 2.39] , what value of pEC50 is listed for RIPK1 (Homo sapiens, UniProt Q13546)?
### Response 7.48
